- Assayed Target: T1, soluble human TF (human TF 1-219 with the FLAG peptide linked to the C-terminal) (human, UniProt P13726 33-251)
- T1 construct: Entry is the whole soluble construct (TF 1-219 followed by FLAG peptide M2); also called soluble TF; shTF
- T1 sequence (P13726 other isoform, or with tags, fused parts or gaps limits assumed): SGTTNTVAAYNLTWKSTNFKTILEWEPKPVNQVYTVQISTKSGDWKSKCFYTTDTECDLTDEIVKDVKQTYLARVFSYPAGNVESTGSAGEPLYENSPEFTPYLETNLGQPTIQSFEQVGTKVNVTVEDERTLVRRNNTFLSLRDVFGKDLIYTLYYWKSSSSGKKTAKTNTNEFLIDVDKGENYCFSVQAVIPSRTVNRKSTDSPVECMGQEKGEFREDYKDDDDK
- Experimental Details: BIACORE; antibody captured on Protein G chip, soluble TF as analyte; mean ± SD, n = 3
- Protocol: Kinetic analysis of the antigen-antibody reaction was carried out using BIACORE. The recombinant Protein G was immobilized on a sensor chip, to which the antibody was coupled. […] From the sensorgram obtained, kinetic parameters (dissociation rate constants kdiss, and binding rate constants kass) were calculated. […] The data file of interest was read in, and the comparison of reaction patterns by superscription was made using as the baseline the sensorgram of the HBS-EP buffer. […]
Endpoint Name: koff (s⁻¹)
# value in s⁻¹; strip the unit string

Some solved cases for reference:
{"columns": ["Binder", "Endpoint Name", "Measured Result"],
 "data": [
  ["H chain chimeric/L chain chimeric antibody (chimeric ATR-5 antibody) (antibody, V domains shown, Mouse ATR-5 V regions joined to human C regions; Both an IgG1 (N5KG1(V)) and an IgG4 (N5KG4P) kappa form were made; also called ch-ch; cha-cha) VH: EVQLQQSGTNLVRPGALVKLSCKGSGFNIKDYYMHWVKQRPEQGLEWIGGNDPANGHSMYDPKFQGKASITADTSSNTAYLQLSSLTSEDTAVYFCARDSGYAMDYWGQGTSVTVSS VL: DIKMTQSPSSMYASLGERVTITCKASQDIKSFLSWYQQKPWKSPKTLIYYATSLADGVPSRFSGSGSGQDYSLTINNLESDDTATYYCLQHGESPYTFGGGTKLEIK", "koff", 0.000506],
  ["H chain humanized version i/L chain humanized version b antibody (antibody, IgG4, V domains shown) VH: QVQLLESGAVLARPGTSVKISCKASGFNIKDYYMHWVKQRPGQGLEWIGGNDPANGHSMYDPKFQGRVTITADTSTSTAYMELRSLRSDDTAVYYCARDSGYAMDYWGQGTLVTVSS VL: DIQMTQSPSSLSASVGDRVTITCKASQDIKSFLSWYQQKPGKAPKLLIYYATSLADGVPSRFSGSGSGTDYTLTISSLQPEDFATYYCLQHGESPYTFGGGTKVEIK", "koff", 0.000649]
]}

Query binder follows.
Name the reported koff value associated with the binder H chain humanized version b/L chain humanized version b antibody (antibody, IgG4, V domains shown, also called b-b; bb) VH: QVQLLESGAVLARPGTSVKISCKASGFNIKDYYMHWVKQRPGQGLEWIGGNDPANGHSMYDPKFQGRVTITADTSTNTAYMELSSLRSEDTAIYYCARDSGYAMDYWGQGTLVTVSS VL: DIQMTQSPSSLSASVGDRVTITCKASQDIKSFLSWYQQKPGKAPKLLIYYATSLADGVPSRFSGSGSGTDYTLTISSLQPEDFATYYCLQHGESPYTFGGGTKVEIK
0.000952

Values were extracted from patent US7494647.
